Would you mind telling me the reported pIC50 of each entry?
# System under test: UniProt P25106
# Assay: Serum Binding Analysis: displacement of 125I-labeled SDF-1 from CXCR7 in 100% human serum
# Measurement context: 125I SDF-1 displacement in 100% human serum, MCF-7 and/or MDA-MB-435S CXCR7 transfected cells, 3 hrs at 4° C.; read-out: Avg Ser IC50
pIC50: −log10 of the molar value.

# compound CC(C)c1cnc(C(=O)N[C@H]2CCN(c3nccn4ccnc34)C2)nc1 ; its pIC50 = ≥ 6.30

// sample Cc1cn2cccc2c(N2CC[C@H](NC(=O)c3csc(N4CCC(O)CC4)n3)C2)n1 , its pIC50 was ≥ 6.30

Lab book: pIC50 of O=C(N[C@H]1CCN(c2nccn3cnnc23)C1)c1ccn(-c2ccc(F)cc2)n1 noted as ≥ 6.30

Note to self: pIC50 recorded for CCc1cn2cccc2c(N2CC[C@H](NC(=O)c3csc(N4CCC(O)CC4)n3)C2)n1 was ≥ 6.30

# pIC50 (compound: Cc1cn2cccc2c(N2CC[C@H](NC(=O)c3ncn(-c4ccc(Cl)cc4)n3)C2)n1 ) is ≥ 6.30

Value of measured pIC50 for the entry CC(C)c1cn2cccc2c(N2CC[C@H](NC(=O)c3csc(N4CCC(O)CC4)n3)C2)n1 : ≥ 6.30

Input O=C(N[C@H]1CCN(c2nccn3ccnc23)C1)c1csc(N2CCCC2)n1 . Output pIC50: ≥ 6.30

Form field pIC50, entry N#CCc1ccccc1-n1ccc(C(=O)N[C@H]2CCN(c3nccn4cccc34)C2)n1 : ≥ 6.30

// input: 8 compounds below; output: pIC50 for each
1. Cc1ccn2ccnc(N3CC[C@H](NC(=O)c4ccn(-c5cccc(F)c5)n4)C3)c12
2. Cc1cc(Cl)ccc1-n1ccc(C(=O)N[C@H]2CCN(c3nccn4cccc34)C2)n1
3. O=C(N[C@H]1CCN(c2nccn3cnnc23)C1)c1ccn(-c2ccc(Cl)cc2)n1
4. O=C(N[C@H]1CCN(c2nccn3cnnc23)C1)c1coc(-c2ccccc2)n1
5. O=C(NC1(CO)CCN(c2nccn3cccc23)C1)c1ccn(-c2ccc(F)cc2)n1 (centres unmarked)
6. CC(C)c1cn2cccc2c(N2CC[C@H](NC(=O)c3ncn(-c4ccccc4)n3)C2)n1
7. Cc1ccn2ccnc(N3CC[C@H](NC(=O)c4ccn(-c5ccc(F)cc5)n4)C3)c12
8. CC(O)c1cnc(C(=O)N[C@H]2CCN(c3nccn4cccc34)C2)nc1 (some centres unmarked)

result:
["≥ 6.30", "≥ 6.30", "5.60 to 6.30", "≥ 6.30", "≥ 6.30", "5.60 to 6.30", "5.60 to 6.30", "5.60 to 6.30"]

* * *

Kindly supply the reported IC50 values for the records listed here.
# System under test: CXCR7 receptor (Homo sapiens (Human), UniProt P25106)
# Sequence (P25106 whole entry): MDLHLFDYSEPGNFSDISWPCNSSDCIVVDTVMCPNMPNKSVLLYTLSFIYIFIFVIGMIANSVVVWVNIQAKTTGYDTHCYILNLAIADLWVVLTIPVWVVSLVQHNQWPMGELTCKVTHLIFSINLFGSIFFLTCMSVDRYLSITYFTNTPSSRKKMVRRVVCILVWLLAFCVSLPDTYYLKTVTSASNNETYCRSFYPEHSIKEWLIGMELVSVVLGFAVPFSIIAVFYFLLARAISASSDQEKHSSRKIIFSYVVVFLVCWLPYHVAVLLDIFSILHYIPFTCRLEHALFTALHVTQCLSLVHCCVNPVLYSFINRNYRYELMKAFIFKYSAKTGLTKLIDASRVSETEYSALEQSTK
# Assay: Buffer Binding Analysis: displacement of 125I-labeled SDF-1 from CXCR7
# Measurement context: 125I SDF-1 displacement, buffer binding medium, MCF-7 and/or MDA-MB-435S CXCR7 transfected cells, 3 hr at 4° C.; read-out: Avg Bind IC50
# Description: The compounds were combined with cells expressing the CXCR7 receptor (e.g., MCF cells or cells transfected to express CXCR7) in the presence of the 125 I-labeled SDF-1 chemokine as detailed in Determination of IC50 values. Reagents and Cells (see below). The ability of the compounds to displace the labeled chemokine from the CXCR7 receptor sites at multiple concentrations was then determined with the screening process. […]

Please review the following examples before continuing.
IC50 reported for this compound O=C(N[C@H]1CCN(c2nccn3cnnc23)C1)c1ncn(-c2ccc(F)cc2)n1 : ≤ 500 nM

# IC50 (compound: O=C(N[C@H]1CCN(c2nccn3cnnc23)C1)c1ccn(C2CCOCC2)n1 ) is 2500 to 15000 nM

Field IC50 (entry Cc1ccccc1-n1ccc(C(=O)N[C@H]2CCN(c3nccn4cccc34)C2)n1 ) reads ≤ 500 nM

Data point: Cc1ccn2ccnc(N3CC[C@H](NC(=O)c4ccn(-c5ccc(Cl)c(F)c5)n4)C3)c12 ; IC50 = ≤ 500 nM

IC50 reading for O=C(N[C@H]1CCN(c2nccn3cccc23)C1)c1ccn(-c2ccc(Cl)c(F)c2)n1 : ≤ 500 nM

Recorded result, O=C(N[C@H]1CCN(c2nccn3ccnc23)C1)c1ccn(C2CCOCC2)n1 , IC50: 500 to 2500 nM

Entry Cc1ccccc1-n1cnc(C(=O)N[C@H]2CCN(c3nccn4cccc34)C2)n1 , IC50 reported as ≤ 500 nM

// switching to the query compound
For record O=C(N[C@H]1CCN(c2nccn3cnnc23)C1)c1csc(N2CCC(O)CC2)n1 the listed IC50 is ≤ 500 nM

Hey, just so you know, these numbers are from patent US10287292B2.
